system: recombinant virus from patient viral RNA (Example 5, 3TC resistant HIV strains); experiment: Recombinant virus assay (MT4/MTT), patient of Example 5 (AZT, then AZT+3TC therapy); assay type: cell-based, HIV-1; conditions: Table 1, patient mean IC50 / recIIIB IC50, Example 5
Each item that follows carries a reported ratio (1)/(2).
measured-attribute: ratio (1)/(2)

>>> recorded_value("CC(=O)c1ccc(C)cc1NC(C(N)=O)c1c(Cl)cccc1Cl (stereo not shown) [loviride]")
2
>>> recorded_value("O=c1[nH]cnc2c1ncn2[C@H]1CC[C@@H](CO)O1")
0.5
>>> recorded_value("Cc1cn([C@H]2C[C@H](N=[N+]=[N-])[C@@H](CO)O2)c(=O)[nH]c1=O")
0.4
>>> recorded_value("CC(C)=CCN1Cc2c(Cl)ccc3[nH]c(=S)n(c23)C[C@@H]1C")
1.5
>>> recorded_value("Cc1cn([C@H]2C=C[C@@H](CO)O2)c(=O)[nH]c1=O")
0.5
>>> recorded_value("Nc1ccn([C@H]2CC[C@@H](CO)O2)c(=O)n1")
0.5
>>> recorded_value("Nc1ccn([C@@H]2CS[C@H](CO)O2)c(=O)n1")
118

###

test system: recombinant virus from patient viral RNA (Example 9); assay: Recombinant virus assay (MT4/MTT), patient of Example 9 (multiple nucleoside analogue RT-inhibitors); type: cell-based, HIV-1; conditions: Table 5, patient mean IC50 / recIIIB IC50, Example 9
measured-attribute: ratio (1)/(2)

>>> recorded_value("Nc1ccn([C@@H]2CS[C@H](CO)O2)c(=O)n1")
">6"
>>> recorded_value("Cc1cn([C@H]2C=C[C@@H](CO)O2)c(=O)[nH]c1=O")
">8"
>>> recorded_value("O=c1[nH]cnc2c1ncn2[C@H]1CC[C@@H](CO)O1")
">21"
>>> recorded_value("Cc1cn([C@H]2C[C@H](N=[N+]=[N-])[C@@H](CO)O2)c(=O)[nH]c1=O")
">344"
